Ref: PubChem BioAssay (NCI)

Test system: NCI-H322M lung
Experiment Summary: NCI-60 one-dose screen, 48 h (100 = growth as untreated, 0 = no growth, -100 = all killed)
Measurement Setup: 10 µM
Protocol: Growth inhibition of the NCI-H322M human Non-Small Cell Lung tumor cell line is measured as a screen for anti-cancer activity. Cells are grown in 96 well plates and exposed to the test compound for 48 hours. Compounds are tested at a single concentration, which is 10^-5 M for most compounds. The reported endpoint is percent growth (GI% or GIPRCNT), where numbers from 0 - 100% represent growth inhibition, and numbers from -100% - 0 represent cell death. […]
About 83,000 compounds went through this panel and 20% of them were active in at least one assay; those are over-represented in the sample as a whole.
Binarize growth at 40%; below is class 1, at or above is class 0.

O=C1S/C(=C\c2ccc([N+](=O)[O-])cc2)C(=O)N1CCN1CCCCC1 : class 0
CC(C)(C)c1cc(/C=C2\S/C(=N/c3ncn[nH]3)NC2=O)cc(C(C)(C)C)c1O : class 1
CCOC(=O)c1ccc(NC(=O)CSC(CC(=O)c2sc(Nc3ccccn3)nc2C)c2ccccc2F)cc1 (stereo unspecified) : class 1
O=C(CSc1nc2ccccc2c(=O)n1-c1ccc(Cl)cc1)Nc1ccc(-c2nc3ccccc3[nH]2)cc1 : class 1
O=[N+]([O-])c1cccc(-c2nnc3c(/C=C/c4ccccc4O)nc4ccccc4n23)c1 : class 0
C#CCOc1cc(N(CC)CC)ccc1C(C(=O)NC(C)(C)C)N(C(=O)C1CCc2cc(F)ccc2O1)c1ccc(F)cc1F (stereo unspecified) : class 0
O=C(c1ccccc1)c1ccc2nc(-c3ccccc3Br)[nH]c2c1 : class 1
O=C1NC2C=CC=CC2/C1=C1/SC(=S)N(C2CC(=O)N(c3ccc(Br)cc3)C2=O)C1=O (stereo unspecified) : class 0
O=C(Nc1ccc(OCC(=O)c2ccc(Cl)cc2)cc1)Nc1ccc(Cl)c(C(F)(F)F)c1 : class 0
Cn1cc(-c2nnc(N)nc2-c2c[nH]c3ccc(F)cc23)c2cc(Br)cnc21 : class 0
COc1cc(-c2nc3ccc(C)cc3[nH]2)ccc1OCc1nnc(-c2ccccc2Br)o1 : class 0
Cc1ccc(S(=O)(=O)N2CCN(S(=O)(=O)c3oc(-c4ccccc4)nc3C#N)CC2)cc1 : class 0
COc1ccc(OC)c(-n2cc(C#N)c(N)c2C(=O)c2ccc(Cl)cc2Cl)c1 : class 0
Cn1cc(-c2nnc(N)nc2-c2c[nH]c3ccccc23)c2cc(Br)cnc21 : class 0
Cn1cc(-c2cc(N)n3nc(-c4cn(C)c5ccccc45)cc3n2)c2cc(F)ccc21 : class 1
COc1ccc2[nH]cc(-c3nc(N)nnc3-c3cn(C)c4ncc(Br)cc34)c2c1 : class 1
